# Measured Target: UniProt:Q16539
# Sequence (Q16539 whole entry): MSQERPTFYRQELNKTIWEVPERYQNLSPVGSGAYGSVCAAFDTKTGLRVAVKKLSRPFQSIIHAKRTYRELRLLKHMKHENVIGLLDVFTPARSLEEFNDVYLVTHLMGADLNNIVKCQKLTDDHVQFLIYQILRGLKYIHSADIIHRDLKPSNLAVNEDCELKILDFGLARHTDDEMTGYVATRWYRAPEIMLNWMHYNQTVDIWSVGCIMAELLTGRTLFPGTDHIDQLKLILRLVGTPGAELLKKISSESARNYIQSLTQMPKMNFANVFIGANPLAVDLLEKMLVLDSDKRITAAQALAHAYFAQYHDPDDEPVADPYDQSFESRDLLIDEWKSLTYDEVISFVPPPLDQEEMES
Property Measured: pIC50
Reminder that pIC50 is minus the log10 of a molar concentration.

Short answer on UniProt:Q16539 for Fc1ccc(-c2noc(CN3CCCCC3)c2-c2ccnc(NC3CCCCC3)n2)cc1 [V-05-015] , pIC50: 8.10

* * *

# Measured Target: LCK (Homo sapiens)
# Sequence (P06239 whole entry, species assumed): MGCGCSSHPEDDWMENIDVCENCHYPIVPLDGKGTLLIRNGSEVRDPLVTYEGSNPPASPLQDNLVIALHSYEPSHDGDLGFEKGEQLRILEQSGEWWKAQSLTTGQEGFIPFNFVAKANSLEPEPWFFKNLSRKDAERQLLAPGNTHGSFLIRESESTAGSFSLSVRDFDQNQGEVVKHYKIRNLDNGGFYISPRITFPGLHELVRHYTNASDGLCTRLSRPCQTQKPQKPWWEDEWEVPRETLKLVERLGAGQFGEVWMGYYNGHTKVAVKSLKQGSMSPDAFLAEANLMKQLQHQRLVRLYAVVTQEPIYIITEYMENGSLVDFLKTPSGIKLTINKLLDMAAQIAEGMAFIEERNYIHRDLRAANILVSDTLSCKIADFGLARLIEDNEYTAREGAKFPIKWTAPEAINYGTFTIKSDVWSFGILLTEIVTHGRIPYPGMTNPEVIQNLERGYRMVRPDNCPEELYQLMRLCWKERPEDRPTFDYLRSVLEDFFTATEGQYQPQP
Recorded Ki values for a group of molecules are listed next.

Short answer on LCK (Homo sapiens) for OC[C@@H]1CCCN1Cc1onc(-c2ccc(F)cc2)c1-c1ccnc(NC2CCCCC2)n1 [V-05-014] , Ki: > 1000 nM

Please find the next molecule below.
Short answer on LCK (Homo sapiens) for Fc1ccc(-c2noc(CN3CCCCC3)c2-c2ccnc(NC3CCCCC3)n2)cc1 [V-05-015] , Ki: > 1000 nM
